Reference source for all entries: patent US8685916B2

assay-notes: Oral administration of hydrocodone prodrugs KC-40 or KC-50 co-dosed with Compound 109 to rats
stated-conditions: Sprague Dawley, rat, plasma, po, […], HC Cmax ± sd, Table 11A: hydrocodone values in Table 10 adjusted to provide expected values at a […] (62 μmol/kg) dose, rat
assay-readout: Cmax (ng/mL)
Respond with the bare value in ng/mL.

What measured Cmax goes with COc1ccc2c3c1O[C@H]1C(=O)CC[C@H]4[C@@H](C2)N(C)CC[C@]314 [Hydrocodone, hydrocodone] ?
11.9

---

Provide the reported half-life at 0.761 mM of each item.
study-target: trypsin (Bos taurus)
Construct: purchased Sigma-Aldrich T8003; host or cells: bovine pancreas (tissue-derived preparation)
Sequence (P00760 24-246): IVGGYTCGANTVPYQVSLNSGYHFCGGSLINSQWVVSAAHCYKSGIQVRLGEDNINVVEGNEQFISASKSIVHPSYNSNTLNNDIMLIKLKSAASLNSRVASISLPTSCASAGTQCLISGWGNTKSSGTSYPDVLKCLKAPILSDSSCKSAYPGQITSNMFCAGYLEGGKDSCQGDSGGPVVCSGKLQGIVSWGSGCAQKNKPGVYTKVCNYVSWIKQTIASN
assay-notes: In vitro trypsin-mediated cleavage of hydrocodone prodrugs
Format: biochemical, bovine
stated-conditions: bovine, trypsin from bovine pancreas, pH 8; adjusted to 4815 BAEE U trypsin/mL; read-out: Prodrug trypsin half-life (converted)
Respond with the bare value in min.

What measured half-life at 0.761 mM goes with "COc1ccc2c3c1O[C@H]1C(OC(=O)N4CCCC[C@@H]4CNC(=O)[C@H](CCCNC(=N)N)NC(=O)CC(=O)O)=CC[C@H]4[C@@H](C2)N(C)CC[C@]314" ?
23.9

What measured half-life at 0.761 mM goes with COc1ccc2c3c1O[C@H]1C(OC(=O)N4CC(C(=O)O)CCC4CNC(=O)[C@H](CCCNC(=N)N)NC(=O)CNC(C)=O)=CC[C@H]4[C@@H](C2)N(C)CC[C@]314 (mixture of isomers) ?
9

What measured half-life at 0.761 mM goes with "COc1ccc2c3c1O[C@H]1C(OC(=O)N4CCCC[C@@H]4CNC(=O)[C@H](CCCNC(=N)N)NC(=O)CNC(C)=O)=CC[C@H]4[C@@H](C2)N(C)CC[C@]314" ?
1.08

What measured half-life at 0.761 mM goes with "COc1ccc2c3c1O[C@H]1C(OC(=O)N4CCCC[C@@H]4CNC(=O)[C@H](CCCNC(=N)N)NC(=O)CNC(=O)CC(=O)O)=CC[C@H]4[C@@H](C2)N(C)CC[C@]314" ?
3.9

What measured half-life at 0.761 mM goes with "COc1ccc2c3c1O[C@H]1C(OC(=O)N4CCCC[C@@H]4CNC(=O)[C@H](CCCNC(=N)N)NC(C)=O)=CC[C@H]4[C@@H](C2)N(C)CC[C@]314" ?
7.2

What measured half-life at 0.761 mM goes with "COc1ccc2c3c1O[C@H]1C(OC(=O)N4CCCC[C@@H]4CNC(=O)[C@H](CCCNC(=N)N)NC(=O)[C@H](C)NC(=O)CC(=O)O)=CC[C@H]4[C@@H](C2)N(C)CC[C@]314" ?
0.48
